Values were extracted from patent US20080051418A1.

READOUT NAME: melting point

Before answering, review these 5 worked examples.
CC(C)Oc1ccc(CCCOc2cc(CCC(=O)O)n(-c3ccccc3)n2)c(OCc2ccc(C(F)(F)F)cc2)c1
118 to 119 °C
CC(C)Cn1nc(OCCCc2ccc(OC(C)C)cc2Oc2ncc(C(F)(F)F)cc2Cl)cc1CCC(=O)O
71 to 73 °C
COCCOc1cc(Oc2ccc(C(F)(F)F)cn2)ccc1CCCOc1cc(CCC(=O)O)n(-c2ccccc2)n1
83 to 85 °C
CCn1nc(OCCCCc2ccc(OC(C)C)cc2Oc2ncc(C(F)(F)F)cc2Cl)cc1CCC(=O)O
129 to 130 °C
CC(C)Oc1cc(CCCOc2ncccc2CC(=O)O)n(Cc2ccc(Cl)cc2OC(C)C)n1
82 to 84 °C

Here is another molecule to look at.
Looking up CC(C)Oc1cc(CCCOc2nn(Cc3ccccc3)cc2CC(=O)O)n(Cc2ccc(F)cc2Cl)n1 , I found its melting point recorded as 121 to 123 °C
